Source listed as patent US11465983B2.

biological target: USP7 (Homo sapiens, UniProt Q93009); test: Isothermal titration calorimetry, binding affinity of protein/ligand; design: made in house; host or cells: E. coli BL21 (DE3); conditions: ITC at 20° C.
Sequence (Q93009 whole entry): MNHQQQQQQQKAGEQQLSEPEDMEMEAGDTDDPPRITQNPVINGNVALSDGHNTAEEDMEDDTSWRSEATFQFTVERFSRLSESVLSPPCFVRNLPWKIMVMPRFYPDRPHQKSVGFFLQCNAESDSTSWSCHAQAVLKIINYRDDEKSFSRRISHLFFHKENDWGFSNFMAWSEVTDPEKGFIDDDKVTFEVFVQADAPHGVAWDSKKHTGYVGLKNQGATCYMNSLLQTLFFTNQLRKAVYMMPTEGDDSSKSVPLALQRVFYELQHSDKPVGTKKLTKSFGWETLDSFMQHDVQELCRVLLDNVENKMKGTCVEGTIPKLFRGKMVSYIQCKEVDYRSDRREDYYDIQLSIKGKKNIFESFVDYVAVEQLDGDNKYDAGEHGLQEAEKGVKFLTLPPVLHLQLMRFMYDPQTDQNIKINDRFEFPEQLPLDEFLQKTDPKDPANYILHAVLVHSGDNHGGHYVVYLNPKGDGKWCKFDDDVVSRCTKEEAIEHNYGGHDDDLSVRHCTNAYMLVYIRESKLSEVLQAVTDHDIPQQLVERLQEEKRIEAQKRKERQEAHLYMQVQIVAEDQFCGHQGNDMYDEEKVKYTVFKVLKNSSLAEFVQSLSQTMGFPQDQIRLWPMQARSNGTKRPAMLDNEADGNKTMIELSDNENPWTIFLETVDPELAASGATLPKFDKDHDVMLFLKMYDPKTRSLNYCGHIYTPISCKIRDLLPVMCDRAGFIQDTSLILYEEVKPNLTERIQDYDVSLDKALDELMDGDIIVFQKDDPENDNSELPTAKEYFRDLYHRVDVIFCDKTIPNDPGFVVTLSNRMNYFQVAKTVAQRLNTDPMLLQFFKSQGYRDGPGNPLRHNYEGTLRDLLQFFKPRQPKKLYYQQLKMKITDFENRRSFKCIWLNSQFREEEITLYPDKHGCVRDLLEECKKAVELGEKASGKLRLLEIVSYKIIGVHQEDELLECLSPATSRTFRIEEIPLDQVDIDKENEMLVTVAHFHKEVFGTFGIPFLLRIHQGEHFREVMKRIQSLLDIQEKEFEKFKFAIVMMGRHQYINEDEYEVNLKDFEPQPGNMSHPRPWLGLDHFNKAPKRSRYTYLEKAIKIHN

>  <COMPOUND>
C[C@@H](CC(=O)N1CCC(O)(Cn2cnc3cc(Cl)ccc3c2=O)CC1)c1ccccc1

>  <DH (kcal/mol)>
-13.5

$$$$
>  <COMPOUND>
C[C@H](CC(=O)N1CCC(O)(Cn2cnc3cc(NC(=O)CCN4CCN(C)CC4)ccc3c2=O)CC1)c1ccccc1

>  <DH (kcal/mol)>
-15.1

$$$$
>  <COMPOUND>
CC(CC(=O)N1CCC(O)(Cn2cnc3cc(Cl)ccc3c2=O)CC1)c1ccccc1 (stereo not shown)

>  <DH (kcal/mol)>
-3.9

$$$$
>  <COMPOUND>
O=C(CCc1ccccc1)N1CCC(O)(Cn2cnc3cc(Cl)ccc3c2=O)CC1 [Compound A, reference compound]

>  <DH (kcal/mol)>
-5.4

$$$$
